Attribution: patent US20240228482A1

# assay target: CBL-B (Homo sapiens, UniProt Q13191)
# Construct: GST
# Sequence (Q13191 whole entry): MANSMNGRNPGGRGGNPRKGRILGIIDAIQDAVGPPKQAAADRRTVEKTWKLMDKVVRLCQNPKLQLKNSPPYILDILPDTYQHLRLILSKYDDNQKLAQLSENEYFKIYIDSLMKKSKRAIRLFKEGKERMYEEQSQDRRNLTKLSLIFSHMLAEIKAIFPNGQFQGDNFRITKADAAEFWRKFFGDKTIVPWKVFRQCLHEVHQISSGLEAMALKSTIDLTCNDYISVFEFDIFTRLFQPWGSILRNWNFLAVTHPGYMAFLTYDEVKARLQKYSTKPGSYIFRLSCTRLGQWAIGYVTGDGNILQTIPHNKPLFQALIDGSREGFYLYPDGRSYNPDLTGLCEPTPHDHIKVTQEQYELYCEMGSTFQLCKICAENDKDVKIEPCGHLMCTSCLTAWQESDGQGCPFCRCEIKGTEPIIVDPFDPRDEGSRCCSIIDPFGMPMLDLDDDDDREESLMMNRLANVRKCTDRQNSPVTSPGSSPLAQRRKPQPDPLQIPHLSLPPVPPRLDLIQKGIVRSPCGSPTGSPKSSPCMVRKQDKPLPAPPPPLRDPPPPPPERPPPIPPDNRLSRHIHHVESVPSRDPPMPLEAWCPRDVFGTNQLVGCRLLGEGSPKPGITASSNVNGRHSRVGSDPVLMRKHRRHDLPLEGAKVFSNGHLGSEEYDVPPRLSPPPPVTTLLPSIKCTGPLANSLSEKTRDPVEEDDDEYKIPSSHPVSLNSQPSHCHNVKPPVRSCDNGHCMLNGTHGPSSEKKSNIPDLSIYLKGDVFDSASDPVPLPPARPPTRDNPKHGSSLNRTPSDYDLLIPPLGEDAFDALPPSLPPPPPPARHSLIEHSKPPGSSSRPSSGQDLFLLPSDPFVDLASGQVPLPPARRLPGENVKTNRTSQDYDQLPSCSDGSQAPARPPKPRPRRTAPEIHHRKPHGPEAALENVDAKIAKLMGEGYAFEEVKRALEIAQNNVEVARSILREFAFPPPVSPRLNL
# experiment description: CBL-B TR-FRET IC50 screening (E1/E2 ubiquitination, Biotin-Ubiquitin, Anti GST-Tb donor / Streptavidin-d2 acceptor)
# Type: biochemical
# measurement context: CBL-B 10 nM final; 11-point titration from 100 uM; binned A-F; read-out: CBL-B TR-FRET activity IC50
Can you tell me IC50 for the items I'm about to list?

Please give the measured IC50 for this compound: Cn1cnnc1[C@@H](c1cccc(-n2cc3c(C(F)(F)F)cc(CN4Cc5ncsc5C4)cn3c2=O)c1)C1CCC1 [Compound 357]
< 100 nM

Next entry: Cc1c[nH]nc1[C@H](c1cccc(-n2cc3c(C(F)(F)F)cc(CN4CCO[C@H](C)C4)cn3c2=O)c1)C1COC1 [Compound 267]
> 10000 nM

Next entry: COc1cc(-n2cc3c(C(F)(F)F)cc(CN4CCC(C)(F)CC4)cn3c2=O)cc(C2(Cc3nncn3C)COC2)c1 [Compound 121]
< 100 nM

Next entry: Cn1cnnc1C(F)(F)[C@@](C)(F)c1cccc(-n2cc3c(C(F)(F)F)cc(CN4CC[C@H](F)C4)cn3c2=O)c1 [Compound 28]
100 to 300 nM

###

# assay target: CBL-B (Homo sapiens)
# Construct: GST
# experiment description: CBL-B TR-FRET IC50 screening (E1/E2 ubiquitination, Biotin-Ubiquitin, Anti GST-Tb donor / Streptavidin-d2 acceptor)
# Format: biochemical
# measurement context: CBL-B 10 nM final; 11-point titration from 100 uM; binned A-F; read-out: CBL-B TR-FRET activity IC50
test readout: IC50

Please give the measured IC50 for this compound: Cc1cc(-n2cc3c(C(F)(F)F)cc(CN4CCO[C@H](C)C4)cn3c2=O)cc(C2(Cc3nncn3C)COC2)c1 [Compound 277]
> 10000 nM

Next entry: C[C@H]1CCCN(Cc2cc(C(F)(F)F)c3cn(-c4cccc([C@@H](c5nncn5C)C5CCOCC5)c4)c(=O)n3c2)C1 (single isomer, unassigned) [Compound 359]
> 10000 nM

Next entry: Cn1cnnc1CC1(c2cc(Br)cc(-n3cc4c(C(F)(F)F)cccn4c3=O)c2)COC1 [Compound 180]
3000 to 10000 nM

Next entry: [2H]C([2H])([2H])n1cnnc1C1(c2cccc(-n3cc4c(C(F)(F)F)cc(CN5CCO[C@H](C)C5)cn4c3=O)c2)CC2(CC2)C1 [Compound 118]
< 100 nM

Next entry: Cn1cnnc1C1(c2cccc(-n3cc4c(C(F)(F)F)cc(C#N)cn4c3=O)c2)CC2(CC2)C1 [Compound 113]
301 to 1000 nM

Next entry: C[C@H](c1cc(C(F)(F)F)c2cn(-c3cccc(C4(Cc5nncn5C)COC4)c3)c(=O)n2c1)N1CCC(C)(F)CC1 [Compound 42]
< 100 nM

Next entry: Cn1cnnc1CC1(c2cccc(-n3cc4c(C(F)(F)F)cc(CNCCO)cn4c3=O)c2)COC1 [Compound 75]
100 to 300 nM

Next entry: C=C(C)C[C@H](c1cccc(-n2cc3c(C(F)(F)F)cc(CN4CCC[C@H](C)C4)cn3c2=O)c1)c1nncn1C [Compound 69]
< 100 nM

Next entry: Cn1cnnc1[C@@H](c1cccc(-n2cc3c(C(F)(F)F)cc(CN4CC5(CSC5)C4)cn3c2=O)c1)C1CCC1 [Compound 276]
< 100 nM

Next entry: Cn1cnnc1[C@@H](c1cccc(-n2cc3c(C(F)(F)F)cc(CN4CCC(C)(C)C4)cn3c2=O)c1)C1CCC1 [Compound 245]
< 100 nM

###

# assay target: CBL-B (Homo sapiens)
# Construct: GST
# experiment description: CBL-B TR-FRET IC50 screening (E1/E2 ubiquitination, Biotin-Ubiquitin, Anti GST-Tb donor / Streptavidin-d2 acceptor)
# Type: biochemical
# measurement context: second part of Table 2 (head 'Patent Cmpd No / Updated Activity'); same CBL-B TR-FRET IC50 bins A-F; read-out: Updated Activity
test readout: IC50

Please give the measured IC50 for this compound: CC(=O)N(C)Cc1cc([C@@H](c2nncn2C)C2CCC2)cc(-n2cc3c(C(F)(F)F)cccn3c2=O)c1 (single isomer, unassigned)
> 10000 nM

Next entry: `CN(CC(=O)O)Cc1cc(C(F)(F)F)c2cn(-c3cccc([C@H](c4nncn4C)C4CCC4)c3)c(=O)n2c1`
< 100 nM

Next entry: C[C@H]1CN(Cc2cc(C(F)(F)F)c3cn(-c4cccc([C@H](c5nncn5C)C5CCC5)c4)c(=O)n3c2)CC[C@H]1O (single isomer, unassigned)
< 100 nM

Next entry: `C[C@H]1CCCN(Cc2cc(C(F)(F)F)c3cn(-c4csc([C@@H](c5nncn5C)C5CCC5)c4)c(=O)n3c2)C1`
< 100 nM

Next entry: Cn1cnnc1[C@H](c1cc(F)cc(-n2cc3c(C(F)(F)F)cc(CN4CCC(C)(F)CC4)cn3c2=O)c1)C1CCC1 (single isomer, unassigned)
301 to 1000 nM

Next entry: C[C@H]1CCCN(Cc2cc(C(F)(F)F)c3cn(-c4cccc([C@@H](c5nncn5C(F)F)C5CCC5)c4)c(=O)n3c2)C1 (single isomer, unassigned)
> 10000 nM

###

# assay target: CBL-B (Homo sapiens)
# Construct: GST
# experiment description: CBL-B TR-FRET IC50 screening (E1/E2 ubiquitination, Biotin-Ubiquitin, Anti GST-Tb donor / Streptavidin-d2 acceptor)
# Type: biochemical
# measurement context: second part of Table 2 (head 'Patent Cmpd No / Updated Activity'); same CBL-B TR-FRET IC50 bins A-F; read-out: Updated Activity
test readout: IC50

Please give the measured IC50 for this molecule: `CCS(=O)(=O)N(C)Cc1cc(C(F)(F)F)c2cn(-c3cccc([C@H](c4nncn4C)C4CCC4)c3)c(=O)n2c1`
< 100 nM

Next entry: `C[C@H]1CCCN(Cc2cc(C(F)(F)F)c3cn(-c4cccc([C@@H](c5nncn5C)C5CC5)c4)c(=O)n3c2)C1`
100 to 300 nM

Next entry: `C[C@H]1CCCN(Cc2cc(C(F)(F)F)c3cn(-c4cc([C@H](c5nncn5C)C5CCC5)ccn4)c(=O)n3c2)C1`
1000 to 3000 nM

Next entry: CO[C@H]1C[C@@](c2cccc(-n3cc4c(C(F)(F)F)cc([C@H](C)N5CCC[C@H](C)C5)cn4c3=O)c2)(c2nncn2C)C1 (single isomer, unassigned)
< 100 nM

Next entry: `Cn1cnnc1C1(c2cccc(-n3cc4c(C(F)(F)F)cc(CN5CCc6ncsc6C5)cn4c3=O)c2)CCC1`
< 100 nM

Next entry: `C[C@@H]1CCCN(Cc2cc(C(F)(F)F)c3cn(-c4cccc([C@H](c5nncn5C)C5CCC5)c4)c(=O)n3c2)C1`
< 100 nM

Next entry: C[C@H]1CCCN(Cc2cc(C(F)(F)F)c3cn(-c4cccc([C@H](c5nncn5C(F)F)C5CCC5)c4)c(=O)n3c2)C1 (single isomer, unassigned)
> 10000 nM

Next entry: CO[C@H]1C[C@@](c2cccc(-n3cc4c(C(F)(F)F)cc([C@H](C)N5CC[C@H](F)C5)cn4c3=O)c2)(c2nncn2C)C1 (single isomer, unassigned)
< 100 nM

Next entry: COCC(COC)[C@H](c1cccc(-n2cc3c(C(F)(F)F)cc(CN4CCC[C@H](C)C4)cn3c2=O)c1)c1nncn1C (single isomer, unassigned)
> 10000 nM

Next entry: `COCCn1ccnc1-c1cc(C(F)(F)F)c2cn(-c3cccc([C@H](c4nncn4C)C4CCC4)c3)c(=O)n2c1`
< 100 nM

Next entry: C[C@@H](c1cc(C(F)(F)F)c2cn(-c3cccc([C@H](c4nncn4C)C4CCC4)c3)c(=O)n2c1)N1CC[C@H](C#N)C1 (single isomer, unassigned)
< 100 nM

Next entry: C[C@H]1CCCN(Cc2cc(C(F)(F)F)c3cn(-c4cccc([C@H](c5nncn5C)[C@H]5C[C@](C)(O)C5)c4)c(=O)n3c2)C1 (single isomer, unassigned)
> 10000 nM

Next entry: C[C@H]1CCCN(Cc2cc(C(F)(F)F)c3cn(-c4cccc([C@@H](CC5(C#N)CC5)c5nncn5C)c4)c(=O)n3c2)C1 (single isomer, unassigned)
> 10000 nM

Next entry: `C[C@H]1CCCN(Cc2cc(C(F)(F)F)c3cn(-c4cccc([C@H](c5nncn5C)C5CN(C)C5)c4)c(=O)n3c2)C1`
> 10000 nM

Next entry: `C[C@H]1COCCN1Cc1cc(C(F)(F)F)c2cn(-c3cccc([C@H](c4nncn4C)C4CCC4)c3)c(=O)n2c1`
< 100 nM

Next entry: Cn1cnnc1[C@@H](c1cc(C#N)cc(-n2cc3c(C(F)(F)F)cc(CN4CCC5(CC5)C4)cn3c2=O)c1)C1CCC1 (single isomer, unassigned)
> 10000 nM
